# Assay Name: in vitro
# Particulars: African green monkey
Property Measured: CC50

Quick one: CC50 for CCC(CC)COC(=O)[C@H](C)N[P@](=O)(OC[C@H]1O[C@@](C#N)(c2ccc3c(N)ncnn23)[C@H](O)[C@@H]1O)Oc1ccccc1 [Remdesivir] ? > 100 µM

----------
# Assay Name: CC50 determination on Calu-3 cells (cell viability)
# Particulars: human
Measured CC50 at 48 h by item

* Cc1nc(-c2ccc([C@@H]3N(C)c4ccc(F)cc4C(=O)N3c3ccccc3)s2)cs1 | > 100 µM
* Cc1ccc(C)c(OCCCCCCN2C[C@H](O)[C@@H](O)[C@H](O)[C@H]2CO)c1 | > 100 µM
* CCCCCCCCCN1C[C@H](O)[C@@H](O)[C@H](O)[C@H]1CO | > 100 µM

API: the following record is the query input.
Quick one: CC50 at 48 h for CN1CCN(Cc2ccc(-c3cnc4[nH]cc(-c5ccc6[nH]ccc6c5)c4c3)cc2)CC1 ? 15.5 µM

----------
# Assay Name: CellTiter-Glo 2.0 cell viability assay on Vero E6 cells
# Particulars: African green monkey, Vero E6 cells (uninfected)
Property Measured: CC50 at 48 h

The examples below pair each entry with its known result.
* CCCCCCCCCN1C[C@H](O)[C@@H](O)[C@H](O)[C@H]1CO [NN-DNJ, N-Nonyl Deoxynojirimycin] | > 100 µM
* Cc1nc(-c2ccc([C@@H]3N(C)c4ccc(F)cc4C(=O)N3c3ccccc3)s2)cs1 [Retro-2.1] | > 100 µM
* Cc1ccc(C)c(OCCCCCCN2C[C@H](O)[C@@H](O)[C@H](O)[C@H]2CO)c1 [PBDNJ0803] | > 100 µM

API: the following record is the query input.
Quick one: CC50 at 48 h for CN1CCN(Cc2ccc(-c3cnc4[nH]cc(-c5ccc6[nH]ccc6c5)c4c3)cc2)CC1 [URMC-099-C] ? 14.7 µM

Measured values drawn from paper PMC7760777 for this set.
